Where these numbers come from: paper PMC10318456

Entries and their IC50 values follow.
- target_desc: PSEN1 M146A–APH1A γ-secretase complex (Homo sapiens, UniProt P49768, M146A)
- Construct: expressed in transfected cells; host or cells: Psen1/2 double KO/Aph1ABC triple KO MEFs, pools without clonal selection
- test_name: Aβ40 secretion, MEF cell pool restored with PSEN1 M146A–APH1A
- Assay type: cell-based
- assay_context: PSEN1 M146A (TM2)–APH1A cell pool; N = 3 to 4; mean (95% CI); decimal comma

compound: O=S(=O)(c1ccc(Cl)cc1)N1[C@H]2CC[C@@H]([C@H]1c1ccc(C(F)(F)F)cc1)[C@@H](O)C2 [(+)-9b]
units_label: µM
IC50: 0.031
--
compound: C[C@H](NC(=O)Cc1cc(F)cc(F)c1)C(=O)N[C@H](C(=O)OC(C)(C)C)c1ccccc1
units_label: µM
IC50: 0.234
